Test system: NCI-H23 lung
protocol-description: NCI-60 one-dose screen, 48 h (100 = growth as untreated, 0 = no growth, -100 = all killed)
run-parameters: 10 µM unless noted
This is part of a sample that, as a whole, favours compounds with a hit. Of some 83,000 tested, about 20% had one in any assay. Active and inactive are the calls of the source. Rule for the calls: active = growth percent below 10; inactive = the rest.
measured-endpoint: growth

>  <molecule>
C=CCC(OC(C)=O)c1ccc(OC)c(OC)c1 (stereo not drawn)

>  <readout-value>
109% (inactive)

$$$$
>  <molecule>
c1ccc2[nH]c(Cc3nc4ccccc4[nH]3)nc2c1

>  <readout-value>
107% (inactive)

$$$$
>  <molecule>
CCCCCC#CC(=O)O

>  <readout-value>
109% (inactive)

$$$$
>  <molecule>
CN(C)c1ncnc2c1cnn2C

>  <readout-value>
103% (inactive)

$$$$
>  <molecule>
CCNCC(C)(C)O

>  <readout-value>
99.1% (inactive)

$$$$
>  <molecule>
Cn1/c(=N\N=C\c2ccccc2OCCO)sc2ccccc21

>  <readout-value>
101% (inactive)

$$$$
>  <molecule>
CCC12OC(COc3ccccc3)CN1CCN2c1ccccc1 (stereo not drawn)

>  <readout-value>
98.2% [100 µM] (inactive)

$$$$
>  <molecule>
COC(=O)C1=C(C)C(=O)CC1

>  <readout-value>
120% (inactive)

$$$$

====

growth for assorted compounds
Test system: DU-145 prostate
protocol-description: NCI-60 one-dose screen, 48 h (100 = growth as untreated, 0 = no growth, -100 = all killed)
run-parameters: 10 µM unless noted
About 83,000 compounds went through this panel and 20% of them were active in at least one assay; those are over-represented in the sample as a whole. The source made the active and inactive calls. The calls were made as follows: active = growth percent below 10; inactive = the rest.
measured-endpoint: growth

>  <compound>
CC(=O)c1cccc(N(C)S(=O)(=O)c2ccc(C)cc2)c1

>  <tested-on>
DU-145 prostate

>  <readout-value>
98.2% (inactive)

$$$$
>  <compound>
O=C(O)CC1=CCCCC1

>  <tested-on>
DU-145 prostate

>  <readout-value>
102% (inactive)

$$$$
>  <compound>
O=C(CCl)Nc1ccccc1SCc1cc(Cl)cc2c1OCOC2

>  <tested-on>
DU-145 prostate

>  <readout-value>
101% (inactive)

$$$$
>  <compound>
C=C1SC(=Nc2c(C)cccc2C)N(c2nc(Cl)nc(Cl)n2)C12CCCCC2

>  <tested-on>
DU-145 prostate

>  <readout-value>
108% (inactive)

$$$$
>  <compound>
CCCCN(C(=O)CC)c1ccccc1

>  <tested-on>
DU-145 prostate

>  <readout-value>
99.7% (inactive)

$$$$
>  <compound>
Cc1cc(C)cc(OCC(=O)O)c1

>  <tested-on>
DU-145 prostate

>  <readout-value>
111% (inactive)

$$$$
>  <compound>
Nc1cc2c(cc1Cl)C(=O)c1ccccc1C2=O

>  <tested-on>
DU-145 prostate

>  <readout-value>
67.7% (inactive)

$$$$
>  <compound>
C=COC(=O)CCOCC(CC)CCCC (centres undefined)

>  <tested-on>
DU-145 prostate

>  <readout-value>
96.5% (inactive)

$$$$
>  <compound>
CC(=O)Nc1ccc(C(=O)c2ccc(S(=O)(=O)Nc3ccccc3)cc2)cc1

>  <tested-on>
DU-145 prostate

>  <readout-value>
117% (inactive)

$$$$
>  <compound>
Nc1ccn(C2OC(CO)C(O)C2F)c(=O)n1 (centres undefined)

>  <tested-on>
DU-145 prostate

>  <readout-value>
89.4% (inactive)

$$$$
>  <compound>
C#CC(O)c1ccccc1 (centres undefined)

>  <tested-on>
DU-145 prostate

>  <readout-value>
110% (inactive)

$$$$
>  <compound>
NC(=O)OCCO

>  <tested-on>
DU-145 prostate

>  <readout-value>
104% (inactive)

$$$$
>  <compound>
CC(C)c1ccc(C(=O)OCCCl)cc1

>  <tested-on>
DU-145 prostate

>  <readout-value>
117% (inactive)

$$$$
>  <compound>
CC(=O)Nc1ccc(O)c(C)c1

>  <tested-on>
DU-145 prostate

>  <readout-value>
109% (inactive)

$$$$
